Target: T1, Full length human integrin alpha4beta7 (expressed in 293 cells, purified by Fib504 affinity chromatography) (human, UniProt P13612 34-1032; P26010 20-798)
T1 construct: mature; also called immobilized alpha4beta7
T1 sequence (P13612 34-1032, chain 1 of 2): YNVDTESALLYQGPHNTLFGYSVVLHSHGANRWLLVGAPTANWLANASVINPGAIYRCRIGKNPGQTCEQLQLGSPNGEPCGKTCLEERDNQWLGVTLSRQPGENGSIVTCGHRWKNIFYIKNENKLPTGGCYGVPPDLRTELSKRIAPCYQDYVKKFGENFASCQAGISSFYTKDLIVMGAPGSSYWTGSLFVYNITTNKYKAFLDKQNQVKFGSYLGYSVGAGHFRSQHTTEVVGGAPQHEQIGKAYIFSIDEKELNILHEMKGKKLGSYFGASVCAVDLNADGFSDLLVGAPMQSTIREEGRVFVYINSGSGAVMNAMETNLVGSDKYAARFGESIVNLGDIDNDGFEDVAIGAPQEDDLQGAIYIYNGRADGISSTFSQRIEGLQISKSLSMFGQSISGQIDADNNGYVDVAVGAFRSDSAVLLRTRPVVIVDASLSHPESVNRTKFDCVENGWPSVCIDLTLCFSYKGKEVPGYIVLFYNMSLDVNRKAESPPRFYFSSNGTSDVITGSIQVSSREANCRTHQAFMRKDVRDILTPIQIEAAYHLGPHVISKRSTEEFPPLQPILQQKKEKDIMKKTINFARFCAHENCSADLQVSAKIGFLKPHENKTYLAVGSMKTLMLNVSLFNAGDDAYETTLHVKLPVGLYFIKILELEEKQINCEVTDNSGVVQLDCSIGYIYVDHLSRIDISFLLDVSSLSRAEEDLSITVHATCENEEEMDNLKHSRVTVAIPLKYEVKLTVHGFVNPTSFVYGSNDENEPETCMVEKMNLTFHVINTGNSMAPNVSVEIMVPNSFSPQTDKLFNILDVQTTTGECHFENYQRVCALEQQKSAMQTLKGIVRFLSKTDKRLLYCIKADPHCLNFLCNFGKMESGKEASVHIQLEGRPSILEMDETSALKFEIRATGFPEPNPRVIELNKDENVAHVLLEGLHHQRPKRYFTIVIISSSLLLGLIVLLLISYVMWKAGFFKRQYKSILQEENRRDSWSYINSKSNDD
T1 sequence (P26010 20-798, chain 2 of 2): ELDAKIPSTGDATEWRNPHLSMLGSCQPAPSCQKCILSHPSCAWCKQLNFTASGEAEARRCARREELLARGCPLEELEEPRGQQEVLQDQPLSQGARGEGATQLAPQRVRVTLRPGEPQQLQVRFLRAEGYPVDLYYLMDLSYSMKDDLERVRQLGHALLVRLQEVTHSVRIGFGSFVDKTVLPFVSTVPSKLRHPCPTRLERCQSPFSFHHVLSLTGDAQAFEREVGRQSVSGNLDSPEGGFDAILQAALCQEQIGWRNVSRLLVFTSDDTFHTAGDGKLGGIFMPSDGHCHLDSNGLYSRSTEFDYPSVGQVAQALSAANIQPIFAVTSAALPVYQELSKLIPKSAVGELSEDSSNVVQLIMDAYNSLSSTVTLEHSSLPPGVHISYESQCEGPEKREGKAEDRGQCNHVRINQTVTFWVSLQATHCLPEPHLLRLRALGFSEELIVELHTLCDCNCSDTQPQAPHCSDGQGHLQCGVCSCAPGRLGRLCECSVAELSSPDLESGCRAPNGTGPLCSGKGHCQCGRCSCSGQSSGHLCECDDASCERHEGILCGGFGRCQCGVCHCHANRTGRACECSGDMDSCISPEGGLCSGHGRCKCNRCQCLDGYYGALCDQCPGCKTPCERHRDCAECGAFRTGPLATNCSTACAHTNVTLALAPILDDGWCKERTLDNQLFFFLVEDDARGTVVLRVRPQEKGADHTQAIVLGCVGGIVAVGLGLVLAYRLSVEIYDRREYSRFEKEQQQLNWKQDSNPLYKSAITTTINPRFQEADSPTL
Assay: SPR (BIAcore-3000), Fab immobilized, alpha4beta7 injected
Consider the following binders; for each one, report its Kd.
Quick note: give the figure in nM, leave out the unit.

Exercise: Tell me its Kd given Variant hu504.16, Fab (Fab, name in Kabat numbering, V domains shown, Clone from the Fib504K-RF library with an HVR-L1 change; Tested as Fab; also called Variant 504.16) VH: EVQLVESGGGLVQPGGSLRLSCAASGFFITNNYWGWVRQAPGKGLEWVGYISYSGSTSYNPSLKSRFTISRDTSKNTFYLQMNSLRAEDTAVYYCAMTGSSGYFDFWGQGTLVTVSS VL: DIQMTQSPSSLSASVGDRVTITCRASESVDTLLHWYQQKPGKAPKLLIKYASQSISGVPSRFSGSGSGTDFTLTISSLQPEDFATYYCQQGNSLPNTFGQGTKVEIKR as the entry.
Key: 23

Exercise: Tell me its Kd given Variant hu504.5, Fab (Fab, name in Kabat numbering, V domains shown, Tested as Fab; also called Variant 504.5) VH: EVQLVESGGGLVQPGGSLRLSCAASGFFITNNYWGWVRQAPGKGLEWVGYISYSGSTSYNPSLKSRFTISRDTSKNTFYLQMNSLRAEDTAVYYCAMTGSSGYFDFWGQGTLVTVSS VL: DIQMTQSPSSLSASVGDRVTITCRASESVDSLLHWYQQKPGKAPKLLIKYASQSISGVPSRFSGSGSGTDFTLTISSLQPEDFATYYCQQGNSLPNTFGQGTKVEIKR as the entry.
Key: 9

Exercise: Tell me its Kd given chimeric Fib504 Fab (Fab, V domains shown, Rat Fib504 variable domains in a chimeric Fab; the constant domains are not specified) VH: EVQLQESGPGLVKPSQSLSLTCSVTGFFITNNYWGWIRKFPGNKMEWMGYISYSGSTSYNPSLKSRISITRDTSKNQFFLQLNSVTTEDTATYYCAMTGSSGYFDFWGPGTMVTVSS VL: DVVMTQSPATLSVTPGERISLSCRASESVDTYLHWYQQKPNESPRLLIKYASQSISGIPSRFSGSGSGTDFTLSINGVELEDLSIYYCQQGNSLPNTFGAGTKLELKR as the entry.
Key: 11

Exercise: Tell me its Kd given Variant hu504.32, Fab (Fab, V domains shown, T31D and Y32L in the light chain of the hu504 Kgraft; Tested as Fab; also called Variant 504.32; humanized variant 504.32) VH: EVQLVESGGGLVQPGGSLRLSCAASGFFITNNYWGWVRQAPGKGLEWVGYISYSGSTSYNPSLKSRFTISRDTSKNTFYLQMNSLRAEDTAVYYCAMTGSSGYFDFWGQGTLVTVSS VL: DIQMTQSPSSLSASVGDRVTITCRASESVDDLLHWYQQKPGKAPKLLIKYASQSISGVPSRFSGSGSGTDFTLTISSLQPEDFATYYCQQGNSLPNTFGQGTKVEIKR as the entry.
Key: 3
